Measured MIC values are reported for all entries that follow.
tested on: Klebsiella pneumoniae; assay: Antibacterial activity against Klebsiella pneumoniae ATCC 10031 assessed as reduction in microbial growth after 24 hrs by two-fold serial dilution method; type: functional; conditions: ATCC 10031, 24 h
test_readout: MIC

- CN(C)[C@@H]1C(O)=C(C(N)=O)C(=O)[C@@]2(O)C(O)=C3C(=O)c4c(O)cccc4[C@@](C)(O)[C@H]3C[C@@H]12: 0.44 µg/mL
- CC1=C/C[C@@H](O)CC(=O)/C=C/C=C/C=C\C=C\C=C/[C@@H](C)CNC(=O)\C=C/C=C\C=C\1: > 130 µg/mL
- C[C@@H]1\C=C/C=C/C=C\C=C\C=C\C(=O)C2=C(O)C(=O)C[C@@]2(C)/C=C/C=C\C=C/C(=O)NC1: > 130 µg/mL
- CC1(C)S[C@@H]2[C@H](NC(=O)[C@H](N)c3ccccc3)C(=O)N2[C@H]1C(=O)O: > 130 µg/mL

====

tested on: K562; experiment: Antiproliferative activity against human K562 cells assessed as reduction in cell viability by sulforhodamine B assay; format: functional, cell-based
pIC50: −log10 of the molar value.
Measured pIC50 values are reported for all entries that follow.
test_readout: pIC50

- CC1=C/C[C@@H](O)CC(=O)/C=C/C=C/C=C\C=C\C=C/[C@@H](C)CNC(=O)\C=C/C=C\C=C\1: 6.02
- COc1cc([C@@H]2c3cc4c(cc3[C@@H](O[C@@H]3O[C@@H]5CO[C@@H](C)O[C@H]5[C@H](O)[C@H]3O)[C@H]3COC(=O)[C@H]23)OCO4)cc(OC)c1O [ETOPOSIDE]: 6.01
- C[C@@H]1\C=C/C=C/C=C\C=C\C=C\C(=O)C2=C(O)C(=O)C[C@@]2(C)/C=C/C=C\C=C/C(=O)NC1: 6.13

====

system: MDA-MB-231; assay: Antiproliferative activity against human MDA-MB-231 cells assessed as reduction in cell viability by sulforhodamine B assay; assay type: functional, cell-based
test_readout: IC50 (nM)

• C[C@@H]1\C=C/C=C/C=C\C=C\C=C\C(=O)C2=C(O)C(=O)C[C@@]2(C)/C=C/C=C\C=C/C(=O)NC1 = 660
• COc1cc([C@@H]2c3cc4c(cc3[C@@H](O[C@@H]3O[C@@H]5CO[C@@H](C)O[C@H]5[C@H](O)[C@H]3O)[C@H]3COC(=O)[C@H]23)OCO4)cc(OC)c1O [ETOPOSIDE] = 3320
• CC1=C/C[C@@H](O)CC(=O)/C=C/C=C/C=C\C=C\C=C/[C@@H](C)CNC(=O)\C=C/C=C\C=C\1 = 1000

====

tested on: A549; experiment: Antiproliferative activity against human A549 cells assessed as reduction in cell viability by sulforhodamine B assay; format: functional, cell-based
pIC50: −log10 of the molar value.
Measured pIC50 values are reported for all entries that follow.
test_readout: pIC50

• C[C@@H]1\C=C/C=C/C=C\C=C\C=C\C(=O)C2=C(O)C(=O)C[C@@]2(C)/C=C/C=C\C=C/C(=O)NC1 = 6.55
• CC1=C/C[C@@H](O)CC(=O)/C=C/C=C/C=C\C=C\C=C/[C@@H](C)CNC(=O)\C=C/C=C\C=C\1 = 6.11
• COc1cc([C@@H]2c3cc4c(cc3[C@@H](O[C@@H]3O[C@@H]5CO[C@@H](C)O[C@H]5[C@H](O)[C@H]3O)[C@H]3COC(=O)[C@H]23)OCO4)cc(OC)c1O [ETOPOSIDE] = 6.22

FYI, the data here is from ChEMBL document CHEMBL4602689.
